Experiment: mn = molality of the nth substance listed, in mol/kg
Details: 303 K; 101 kPa; Liquid; Linear variable-path acoustic interferometer; m2 = 0
OBSERVATION TYPE: speed of sound (m/s)
The answer is to be given in m/s; state only the numeric part.

CN(C)C=O [dimethylformamide] + CC(=O)N1N=C(CSc2nc3ccccc3c(=O)n2-c2ccccc2C)OC1(C)c1ccc(C)cc1; 1442
CN(C)C=O [dimethylformamide] + COc1ccc(C2(C)OC(CSc3nc4ccccc4c(=O)n3-c3ccccc3C)=NN2C(C)=O)cc1; 1442
ClC(Cl)Cl [trichloromethane] + CC(=O)N1N=C(CSc2nc3ccccc3c(=O)n2-c2ccccc2C)OC1(C)c1ccc(C)cc1; 960

Consider the additional compound presented here.
Report speed of sound, nothing else, for this compound: ClC(Cl)Cl [trichloromethane] + COc1ccc(C2(C)OC(CSc3nc4ccccc4c(=O)n3-c3ccccc3C)=NN2C(C)=O)cc1
960

###

Experiment: mn = molality of the nth substance listed, in mol/kg
Settings: 308 K; 101 kPa; Liquid; Linear variable-path acoustic interferometer; m2 = 0
molecules and their reported speed of sound
The answer is to be given in m/s; state only the numeric part.

Report speed of sound, nothing else, for this molecule: ClC(Cl)Cl [trichloromethane] + CC(=O)N1N=C(CSc2nc3ccccc3c(=O)n2-c2ccccc2C)OC1(C)c1ccc(C)cc1
950.8

Report speed of sound, nothing else, for this molecule: ClC(Cl)Cl [trichloromethane] + COc1ccc(C2(C)OC(CSc3nc4ccccc4c(=O)n3-c3ccccc3C)=NN2C(C)=O)cc1
950.8

Report speed of sound, nothing else, for this molecule: CN(C)C=O [dimethylformamide] + COc1ccc(C2(C)OC(CSc3nc4ccccc4c(=O)n3-c3ccccc3C)=NN2C(C)=O)cc1
1432

Report speed of sound, nothing else, for this molecule: CN(C)C=O [dimethylformamide] + CC(=O)N1N=C(CSc2nc3ccccc3c(=O)n2-c2ccccc2C)OC1(C)c1ccc(C)cc1
1432

###

Test: mn = molality of the nth substance listed, in mol/kg
Settings: 313 K; 101 kPa; Liquid; Capillary tube (Ostwald / Ubbelohde) method; m2 = 0
Numbers after ± are expanded uncertainties.
OBSERVATION TYPE: viscosity
Answer with the number, then the unit.

Some solved entries appear below for comparison.
CN(C)C=O [dimethylformamide] + CC(=O)N1N=C(CSc2nc3ccccc3c(=O)n2-c2ccccc2C)OC1(C)c1ccc(C)cc1; 0.6353 ± 0.13 mPa·s
CN(C)C=O [dimethylformamide] + COc1ccc(C2(C)OC(CSc3nc4ccccc4c(=O)n3-c3ccccc3C)=NN2C(C)=O)cc1; 0.6353 ± 0.13 mPa·s
ClC(Cl)Cl [trichloromethane] + CC(=O)N1N=C(CSc2nc3ccccc3c(=O)n2-c2ccccc2C)OC1(C)c1ccc(C)cc1; 0.5781 ± 0.12 mPa·s

Report viscosity, nothing else, for this molecule: ClC(Cl)Cl [trichloromethane] + COc1ccc(C2(C)OC(CSc3nc4ccccc4c(=O)n3-c3ccccc3C)=NN2C(C)=O)cc1
0.5781 ± 0.12 mPa·s

###

compounds and their reported viscosity
Assay: mn = molality of the nth substance listed, in mol/kg
Conditions: 303 K; 101 kPa; Liquid; Capillary tube (Ostwald / Ubbelohde) method; m2 = 0
The answer is to be given in mPa·s; state only the numeric part.

Some solved entries appear below for comparison.
CN(C)C=O [dimethylformamide] + COc1ccc(C2(C)OC(CSc3nc4ccccc4c(=O)n3-c3ccccc3C)=NN2C(C)=O)cc1; 0.7588
CN(C)C=O [dimethylformamide] + CC(=O)N1N=C(CSc2nc3ccccc3c(=O)n2-c2ccccc2C)OC1(C)c1ccc(C)cc1; 0.7588
ClC(Cl)Cl [trichloromethane] + CC(=O)N1N=C(CSc2nc3ccccc3c(=O)n2-c2ccccc2C)OC1(C)c1ccc(C)cc1; 0.6628

Report viscosity, nothing else, for this compound: ClC(Cl)Cl [trichloromethane] + COc1ccc(C2(C)OC(CSc3nc4ccccc4c(=O)n3-c3ccccc3C)=NN2C(C)=O)cc1
0.6628

###

Assay: mn = molality of the nth substance listed, in mol/kg
Conditions: 308 K; 101 kPa; Liquid; Pycnometric method; m2 = 0
OBSERVATION TYPE: mass density (kg/m3)
The answer is to be given in kg/m3; state only the numeric part.

CN(C)C=O [dimethylformamide] + CC(=O)N1N=C(CSc2nc3ccccc3c(=O)n2-c2ccccc2C)OC1(C)c1ccc(C)cc1; 937.2

Report mass density, nothing else, for this compound: CN(C)C=O [dimethylformamide] + COc1ccc(C2(C)OC(CSc3nc4ccccc4c(=O)n3-c3ccccc3C)=NN2C(C)=O)cc1
937.2

Report mass density, nothing else, for this compound: ClC(Cl)Cl [trichloromethane] + CC(=O)N1N=C(CSc2nc3ccccc3c(=O)n2-c2ccccc2C)OC1(C)c1ccc(C)cc1
1470.8

Report mass density, nothing else, for this compound: ClC(Cl)Cl [trichloromethane] + COc1ccc(C2(C)OC(CSc3nc4ccccc4c(=O)n3-c3ccccc3C)=NN2C(C)=O)cc1
1470.8

###

Assay: mn = molality of the nth substance listed, in mol/kg
Conditions: 308 K; 101 kPa; Liquid; Capillary tube (Ostwald / Ubbelohde) method; m2 = 0
OBSERVATION TYPE: viscosity (mPa·s)
The answer is to be given in mPa·s; state only the numeric part.

Some solved entries appear below for comparison.
CN(C)C=O [dimethylformamide] + COc1ccc(C2(C)OC(CSc3nc4ccccc4c(=O)n3-c3ccccc3C)=NN2C(C)=O)cc1; 0.7056
ClC(Cl)Cl [trichloromethane] + CC(=O)N1N=C(CSc2nc3ccccc3c(=O)n2-c2ccccc2C)OC1(C)c1ccc(C)cc1; 0.6279
ClC(Cl)Cl [trichloromethane] + COc1ccc(C2(C)OC(CSc3nc4ccccc4c(=O)n3-c3ccccc3C)=NN2C(C)=O)cc1; 0.6279

Report viscosity, nothing else, for this compound: CN(C)C=O [dimethylformamide] + CC(=O)N1N=C(CSc2nc3ccccc3c(=O)n2-c2ccccc2C)OC1(C)c1ccc(C)cc1
0.7056

###

Assay: mn = molality of the nth substance listed, in mol/kg
Details: 313 K; 101 kPa; Liquid; Linear variable-path acoustic interferometer; m2 = 0
± gives the expanded uncertainty stated by the source.
molecules and their reported speed of sound
Answer with the number, then the unit.

Some solved entries appear below for comparison.
ClC(Cl)Cl [trichloromethane] + COc1ccc(C2(C)OC(CSc3nc4ccccc4c(=O)n3-c3ccccc3C)=NN2C(C)=O)cc1; 932.4 ± 3.9 m/s
CN(C)C=O [dimethylformamide] + CC(=O)N1N=C(CSc2nc3ccccc3c(=O)n2-c2ccccc2C)OC1(C)c1ccc(C)cc1; 1402 ± 5.8 m/s
CN(C)C=O [dimethylformamide] + COc1ccc(C2(C)OC(CSc3nc4ccccc4c(=O)n3-c3ccccc3C)=NN2C(C)=O)cc1; 1402 ± 5.8 m/s

Consider the additional molecule presented here.
Report speed of sound, nothing else, for this molecule: ClC(Cl)Cl [trichloromethane] + CC(=O)N1N=C(CSc2nc3ccccc3c(=O)n2-c2ccccc2C)OC1(C)c1ccc(C)cc1
932.4 ± 3.9 m/s

###

Experiment: mn = molality of the nth substance listed, in mol/kg
Conditions: 313 K; 101 kPa; Liquid; Pycnometric method; m2 = 0
OBSERVATION TYPE: mass density (kg/m3)
The answer is to be given in kg/m3; state only the numeric part.

Some solved entries appear below for comparison.
ClC(Cl)Cl [trichloromethane] + COc1ccc(C2(C)OC(CSc3nc4ccccc4c(=O)n3-c3ccccc3C)=NN2C(C)=O)cc1; 1465.8
CN(C)C=O [dimethylformamide] + CC(=O)N1N=C(CSc2nc3ccccc3c(=O)n2-c2ccccc2C)OC1(C)c1ccc(C)cc1; 933.6

Report mass density, nothing else, for this compound: ClC(Cl)Cl [trichloromethane] + CC(=O)N1N=C(CSc2nc3ccccc3c(=O)n2-c2ccccc2C)OC1(C)c1ccc(C)cc1
1465.8

Report mass density, nothing else, for this compound: CN(C)C=O [dimethylformamide] + COc1ccc(C2(C)OC(CSc3nc4ccccc4c(=O)n3-c3ccccc3C)=NN2C(C)=O)cc1
933.6

###

Experiment: mn = molality of the nth substance listed, in mol/kg
Settings: 303 K; 101 kPa; Liquid; Pycnometric method; m2 = 0
compounds and their reported mass density
The answer is to be given in kg/m3; state only the numeric part.

ClC(Cl)Cl [trichloromethane] + COc1ccc(C2(C)OC(CSc3nc4ccccc4c(=O)n3-c3ccccc3C)=NN2C(C)=O)cc1; 1475.3

Report mass density, nothing else, for this compound: CN(C)C=O [dimethylformamide] + CC(=O)N1N=C(CSc2nc3ccccc3c(=O)n2-c2ccccc2C)OC1(C)c1ccc(C)cc1
941.7

Report mass density, nothing else, for this compound: CN(C)C=O [dimethylformamide] + COc1ccc(C2(C)OC(CSc3nc4ccccc4c(=O)n3-c3ccccc3C)=NN2C(C)=O)cc1
941.7

Report mass density, nothing else, for this compound: ClC(Cl)Cl [trichloromethane] + CC(=O)N1N=C(CSc2nc3ccccc3c(=O)n2-c2ccccc2C)OC1(C)c1ccc(C)cc1
1475.3
